- tgt: IMP-1 (Serratia marcescens)
- Sequence (P52699 19-246, looked up, species assumed): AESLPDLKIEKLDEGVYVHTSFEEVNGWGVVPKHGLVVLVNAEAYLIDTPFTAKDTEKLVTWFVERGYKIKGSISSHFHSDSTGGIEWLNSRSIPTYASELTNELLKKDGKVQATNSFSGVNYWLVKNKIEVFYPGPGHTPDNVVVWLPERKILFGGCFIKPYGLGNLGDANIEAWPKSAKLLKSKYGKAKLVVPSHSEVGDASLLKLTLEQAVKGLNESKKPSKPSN
- assayDetails: Enzyme activity: determination of IC50, fluorescence assay with CCF2-FA substrate
- Type: biochemical
- settings: enzyme 2 pM, CCF2-FA 1.25 μM, 2 hours at 25° C.; read-out: IMP1 IC50
Task for the reader: assign each of the following molecules its reported IC50.
Just the number in µM, nothing appended.

# lookup: O=C(O)[C@@H](CCCCc1ccccc1)[C@H](Cc1ccc2c(c1)OCO2)c1nnn[nH]1 [Example 37] on IMP-1 (Serratia marcescens), IC50 = 0.12

# lookup: CC(=O)N1CCC(C[C@H](c2nnn[nH]2)[C@@H](C(=O)O)C(C)C)CC1 [Example 90] on IMP-1 (Serratia marcescens), IC50 = 14

# lookup: CCC[C@H](C(=O)O)[C@H](Cc1ccc(-c2cccc(CN3CCCCC3)c2)cc1)c1nn[nH]n1 [Example 206] on IMP-1 (Serratia marcescens), IC50 = 0.13

# lookup: CCC[C@H](C(=O)O)[C@H](Cc1ccc(NCCN2CCN(C(C)C)CC2)cc1)c1nn[nH]n1 [Example 219] on IMP-1 (Serratia marcescens), IC50 = 1

# lookup: CCC[C@H](C(=O)O)[C@H](Cc1ccc(NCC(=O)N(C)C)cc1)c1nn[nH]n1 [Example 218] on IMP-1 (Serratia marcescens), IC50 = 0.46
